Each recorded value in this set is attributed to the supplement of paper PMC7125110.

B1: glmS ribozyme (parent)
chain: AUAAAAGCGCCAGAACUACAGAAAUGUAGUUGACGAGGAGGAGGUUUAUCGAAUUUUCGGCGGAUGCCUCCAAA

Variants of: B1
METHOD DESCRIPTION: self-cleavage kobs at 10000 uM GlcN6P; higher = faster cleavage; RNA array
RUN CONDITIONS: with glucosamine-6-phosphate
Fewer inactive variants are shown than the library holds.
Label condition met when self-cleavage kobs at 10000 uM GlcN6P is at or above 0.0001 s⁻¹; anything below gets condition not met.

>>> print(df.to_string())
                      macromolecule_sequence              group
 0  AUAAAAGCGCCAGAACUACAGAAAUGUAGUUGACGAGGAGGAGGGUUAUCGAAUUUUCGGAGGAUGCCUCCAAA  condition not met
 1  AUAAAAGCGCCAGAACUACAGAAAUGUAGUUGACGAGGAGGAGGAUUAUCGAAUUUUCGGCGGAUUCCUCCAAA      condition met
 2  AUAAAAGCGCCAGAAUUACAGAAAUGUAGUUGACGAGGAGGAGGUUUAUCGAAUUAUCGGCGGAUGCCUCCAAA      condition met
 3  AUAAAAGCGCCCGAACUACAGAAAUGUAGUUGACUAGGAGGAGGUUUAUCGAAUUUUCGGCGGAUGCCUCCAAA  condition not met
 4  AUAAAAGCGCCAGAACUACAGAAAUGUAGUUGACGAGGAGGAGGUGUAUCGAAUGUUCGGCGGAUUCCUCCAAA      condition met
 5  AUAAAAGCGCCAGACCUACAGAAAUGUAGUUGACGAAGAGGAGGUUUAUCGAAUUUGCGGCGGAUGGCUCCAAA  condition not met
 6  AUAAAAGCGCCAGAACUACAGAAAUGUAGUUGACGAGGAGGGGGUUUUUCGAAUUUUCGGCGGAUGCCUCCAAA      condition met
 7  AUAAAAGCGCCAGAACUACAGAAAUGUAGUUGGCGAGGAGGAGGUUUAUCGAAUUUUCGGGGGAUGCCUCCAAA  condition not met
 8  AUAAAAGCGCCAGAACUACAGAAAUGUAGUUGACGAGGUGGAGGUUUAUCGAAUUUUCGGCGGAUGCCUCGAAA      condition met
 9  AUAAAAGCGCCAGAACUACAGAAAUGUAGUUGACGAGGGGGAGGUUUAUCGAAUGUUCGGCGGAUGACUCCAAA      condition met
10  AUAAAAGCGCCAGAACUACAGAAAUGUAGUUGACGAGGAGGAGGCUUACCGAAUUUUCGGCGGAUUCCUCCAAA  condition not met
11  AUAAAAGCGCCAGAACUACAGAAAUGUAGUUAACGAGGAGGAGGUUUAUCGGAUUUUCGGCGGAUGCCUACAAA  condition not met
12  AUAAAAGCGCCAGAACUACAGAAAUGUAGUCGACGAGGAGGAGGUUUAUCAAAUUUUCGGCGGAUGCCUCCAAA  condition not met
13  AUAAAAGCGCCAGGACUACAGAAAUGUAGUUGACGGGGAGGAGGUUUAUCGAAUUUUCGGCGGAUGCCUCCAAA  condition not met
14  AUAAAAGCGCCAGAACUACAGAAAUGUACUUGACGAGGAGGAGGGUUAUCGAAUUUUCGGCGGAUGCCUCCAAA      condition met
15  AUAAAAGCGCUAGAACUACAGAAAUGUAGUUGACGAGGAGGAGGUGUAUCGAAUUUUCGGCGGAUGCCUCCAAA      condition met
16  AUAAAAGCGCCAGAACUACAGAAAUGUAGUUGACGAGGAGGAGGUUUAUCGAAUUUUUGGCGGAUGCCUCCAAA  condition not met
17  AUAAAAGCGCCAGAUGUACAGAAAUGUAGUUCACGAGGAGGAGGUUUAUCGAAUUUUCGGCGGAUGCCUCCAAA  condition not met
18  AUAAAAGCGCCAGAACUACAGAAAUGUAGAUGACGAGGAGGAGGUUUAUCGAAUUUUAGGCGGAUGCCUCCAAA      condition met
19  AUAAAAGCGCCAGAUCUACAGAAAUGUAGCUGACGAGGAGGAGGUUUAUCGAAUUUUCGGCGGAUGCCUCCAAA      condition met
20  AUAAAAGCGCCAGAACUACAGAAAUGUAGCUGACGAGGAGGAGGUUUAUCGAAUGUUCGGCGGAUGCCUCCAAA      condition met
21  AUAAAAGCGCCAGAACUACAGAAAUGUAGUUGACGAGGAGUAGGUUUAUCGAAUUUUCGGCGGAUGCAUCCAAA  condition not met
22  AUAAAAGCGCCAGGACUACAGAAAUGUAGUUGACGAGGAGGAGGUUUAUCGACUUUUCGGCGGAUGCCUCUAAA      condition met
23  AUAAAAGCGCCGGUACUACAGAAAUGUAGUUGACGGGGAGGAGGUUUGUCGAGUUUUCGGCGGAUGCCUCCAAA  condition not met
24  AUAAAAGCGCCAGAACUACAGAAAUGUAGUUGACGAGGAGGAGGUUUAUCGAAUUUUCGGCGGUUCCCUCCAAA  condition not met
25  AUAAAAGCGCCAGAACUACAGAAAUGUAGUUGACGAGGAGGAGGUUUGUCGAAGUUUCGGCGGAUGCCUCCAAA      condition met
26  AUAAAAGCGCCAGAACUACAGAAAUGUAGUUGACGAGGAGGAGGUUUAUCGAAUUUUCGGCGGACGCCUCCAAA      condition met
27  AUAAAAGCGCCAGAAAUACAGAAAUGUAGUUGACGAGGAGGAGGUUUAUCGACUUUUCGGCGGAUGCCUCCAAA      condition met
28  AUAAAAGCGCCAUAGCUACAGAAAUGUAGUUAACGAGGAGGAGGUUUAUCGAAUUUUCGGCGGAUGCCUGCAAA  condition not met
29  AUAAAAGCACCAUAACUACAGAAAUGUAGUUGACGAGGAGGAGGUUUAUCGAAUUUCCGGCGGAUGCCUCCAAA  condition not met
30  AUAAAAUCGCCAGAACUACAGAAAUGUAAUUGACGAGGAGGAGGUUUGUCGAAUUUUCGGCGGAUGCCUCCAAA  condition not met
31  AUAAAAGCGCCAGAACUACAGAAAUGUAGUUGACGAGGCGGAGGUUUAUCGAAUUUUCGGCUGAUGCCUCCAAA  condition not met
32  AUAAAAGCGCCAGAACUACAGAAAUGUAGUCGACGAGGGGGAGGUUUAUCGAAUUUUCGGCGGAUGCCUCCAAA      condition met
33  AUAAAAGCGCAAGAACUACAGAAAUGUAAUUGACGAGGAGGAGGUUUAUCGAAUUUUCGGCGGAUGCCUCCAAA  condition not met
34  AUAAAAGCGCCAGAACUACAGAAAUGUAGUUGACGAGGAGGAGGUUUAUCGAAUUUUCGGCGGGUGCGUCAAAA  condition not met
35  AUAAAAGUGCCAGAACUACAGAAAUGUAGUUGACGAGGAGGAGGUUUAUCCAAUUUUCGGCGGAUGCCUCCAAA  condition not met
36  AUAAAAGCGCCAGAACUACAGAAAUGUAGUUGACGAGGAGGAGGUUAAUCGAAUUUUUGGCGGAUGCCUCCAAA  condition not met
37  AUAAAAGCGCCAGAACUACAGAAAUGUAGUUGACGAGGAGGAGGUUUAUCGAAUAUUCGGCGGAUGAUUCCAAA      condition met
38  AUAAAAGCGCCAGUACUACAGAAAUGUAGUUGACGAGGAGGAGGUUUAUGGAAUUUUCGGCGGAUGUCUCCAAA      condition met
39  AUAAAGGCGCCAGAACUACAGAAAUGUAGUCGACGAGGAGGAGGUUUAUCGAAUGUUCGGCGGAUGCCUCCAAA  condition not met
